Would you kindly list growth for each of these molecules?
Tested on: NCI-H460 lung
Assay: NCI-60 one-dose screen, 48 h (100 = growth as untreated, 0 = no growth, -100 = all killed)
Conditions: 10 µM unless noted
The panel holds about 83,000 compounds, 20% with a hit somewhere; the sample as a whole holds those more often.
Give bare numbers, in %.

{"Chemical Structure": "O=[N+]([O-])c1cccc(C(c2ccccc2)c2ccccc2)c1", "Unit String": "%", "growth": 87.5}
{"Chemical Structure": "Nc1nc(Cl)cc(NCc2ccc(CNc3cc(Cl)nc(N)n3)cc2)n1", "Unit String": "%", "growth": 115}

Here's the next entry for you.
Challenge: Which growth value belongs to "COC1=C(OC)C(=O)C=CC1=O" ?
Response given: 118
